growth values by entry
tested on: HCT-15 colon; assay: NCI-60 one-dose screen, 48 h (100 = growth as untreated, 0 = no growth, -100 = all killed); details: 10 µM unless noted
Compounds without any hit were thinned out: in the full panel of roughly 83,000, 20% have a hit.
observation.type: growth (%)

{"compound": "CCN(CC)c1ccc2c(c1)OC(N)=C(C#N)C2c1cc(OC)c2c(c1)OCO2 (configuration not stated)", "observation.type": "growth", "measurement": 16.1}
{"compound": "NC(=O)CNc1ccc([As]=[As]c2ccc(NCC(N)=O)cc2)cc1 (configuration not stated)", "observation.type": "growth", "measurement": 44.1}
{"compound": "O=C(O)CNC(=O)C(Cl)(Cl)Cl", "observation.type": "growth", "measurement": 96}
{"compound": "CC(C)=CC1C(C(=O)OCc2cccc(Oc3ccccc3)c2)C1(C)C (configuration not stated)", "observation.type": "growth", "measurement": 98.9}
{"compound": "COc1cccc2c1c(C(=O)C(=O)Nc1ccn[nH]1)cn2Cc1ccc(F)cc1", "observation.type": "growth", "measurement": 106}
{"compound": "O=C(c1ccccc1O)c1[nH]c(Cl)c(Cl)c1-n1c(C(=O)c2ccccc2O)cc(Cl)c1Cl", "observation.type": "growth", "measurement": 9.94}
{"compound": "O=C1C(N2CC2)=C(N2CC2)C(=O)C(N2CC2)=C1N1CC1", "observation.type": "growth", "measurement": 2.19}
{"compound": "O=C(N/N=C/c1ccc(N(CCCl)CCCl)cc1)c1cccc2ccccc12", "observation.type": "growth", "measurement": 56.1}
{"compound": "COC(=O)[C@@H](NC(=O)c1cn(CCC2CCCCC2)c2ccccc12)C(C)(C)C", "observation.type": "growth", "measurement": 59.9}
{"compound": "Cc1ccc(C(=O)NCCCOc2ccc(N)cc2Cl)cc1S(=O)(=O)F", "observation.type": "growth", "measurement": 89.4}
{"compound": "CCn1c2ccccc2c2cc(C(=O)c3cccc4c3CCCN4)ccc21", "observation.type": "growth", "measurement": 104}
{"compound": "N/C(=N/N=C/c1ccncc1)N[N+](=O)[O-]", "observation.type": "growth", "measurement": 97.3}
{"compound": "Cc1cc(NC(=O)NCc2ccc(N3C(N)=NC(N)=NC3(C)C)cc2)ccc1S(=O)(=O)F", "observation.type": "growth", "measurement": 62.2}
{"compound": "O=C(Nc1ccc([N+](=O)[O-])cc1)C(Cl)(Cl)Cl", "observation.type": "growth", "measurement": 80.8}
{"compound": "O=C1C2C(C(=O)[N]1[Hg][c]1cccs1)C1(Cl)C(Cl)=C(Cl)C2(Cl)C1(Cl)Cl (configuration not stated)", "observation.type": "growth", "measurement": -76.8}
{"compound": "COc1ccc(/C=C\\c2cc(OC)c(OC)c(OC)c2)c(NS(=O)(=O)c2ccc(F)cc2)c1O", "observation.type": "growth", "measurement": 6.21}
{"compound": "c1ccc(Nc2nc(-c3ccccc3)c[se]2)cc1", "observation.type": "growth", "measurement": 86.9}
{"compound": "CN1C(=O)N[C@H]2[C@@H]3NC(=O)c4ccc(Br)n4[C@@H]3C[C@]21O", "observation.type": "growth", "measurement": 3.29}
{"compound": "CCCCCCCC[N+](C)(CCCCCCCC)CCCCCCCC", "observation.type": "growth", "measurement": -75}
{"compound": "COc1ccc(C(=O)c2sc3nc4c(cc3c2N)N2CCC4CC2)cc1OC", "observation.type": "growth", "measurement": 96.4}
{"compound": "Cn1cc(C=O)c2nccnc21", "observation.type": "growth", "measurement": 114}
{"compound": "Cc1sc2c(c1C)C(c1ccc(Cl)cc1)=N[C@@H](CC(=O)OC(C)(C)C)c1nnc(C)n1-2", "observation.type": "growth", "measurement": 12.9}
